Below is a list of entries, each paired with its recorded TGI value.
Test system: HS 578T breast
PROCEDURE TEXT: NCI tumour cell line growth inhibition, 48 h
QUANTITY: TGI

compound=CCSc1sc(=Nc2ccc(N=c3sc(C)c(SC)s3)cc2)sc1-c1ccc(C)cc1 quantity=TGI readout_value="> 100 µM"
compound=COc1cccc(-c2nc3sccn3c2-c2ccnc(NCCCNS(=O)(=O)c3cccc(F)c3)c2)c1 quantity=TGI readout_value="> 100 µM"
compound="COC(=O)[C@@H]1[C@@H](c2cccc(Cl)c2)[C@H](C(=O)OC)C2(C[C@@]1(C)O)NCCS2 (stereo partly specified)" quantity=TGI readout_value="> 100 µM"
compound=N#CCc1n[nH]c(Cc2ccccc2)n1 quantity=TGI readout_value="> 100 µM"
compound=COC(=O)CCC(=O)NC1=C(NCc2ccccc2)C(=O)c2ccccc2C1=O quantity=TGI readout_value="> 100 µM"
compound=Cc1ccc(S(=O)(=O)NC(=O)C2C(=O)CC3(CCCCC3)CC2=O)cc1 quantity=TGI readout_value="> 100 µM"

###

Below is a list of entries, each paired with its recorded TGI value.
System: UO-31 renal
PROCEDURE TEXT: NCI tumour cell line growth inhibition, 48 h
QUANTITY: TGI

molecule=CCCC(=O)NC1=C(Cl)C(=O)c2ccccc2C1=O target_entity="UO-31 renal" quantity=TGI readout_value="8.99 µM"
molecule="CCOC(=O)C1N(S(=O)(=O)c2ccc(C)cc2)CCC12c1ccccc1N(C(C)=O)C2c1ccc(OC)c(OC)c1 (centres undefined)" target_entity="UO-31 renal" quantity=TGI readout_value="> 100 µM"
molecule=CN[C@H]1C=C[C@@H]2/C=C(C)/C=C/[C@@H](C)[C@H]([C@H](C)[C@H](O)[C@@H](C)NC(C)=O)OC(=O)/C=C/C=C(C)\C=C\[C@]2(C)C1 target_entity="UO-31 renal" quantity=TGI readout_value="> 49 µM"
molecule="COc1cc2c(cc1OC)C(C(CO)CO)N(CC(O)CCl)CC2 (centres undefined)" target_entity="UO-31 renal" quantity=TGI readout_value="> 100 µM"
molecule=CCOC(=O)c1sc(-c2ccc(OS(=O)(=O)c3ccc(Br)s3)c(C=O)c2)nc1C target_entity="UO-31 renal" quantity=TGI readout_value="9.76 µM"
molecule=c1cc(N(CCn2cccn2)CCn2cccn2)cc(N(CCn2cccn2)CCn2cccn2)c1 target_entity="UO-31 renal" quantity=TGI readout_value="> 100 µM"
molecule=O=C(c1ccccc1)N1CCN(C(=S)N(C(=O)c2ccccc2)c2ccccc2)C1=S target_entity="UO-31 renal" quantity=TGI readout_value="6.43 µM"
molecule=O=S(=O)(CCBr)CCBr target_entity="UO-31 renal" quantity=TGI readout_value="> 100 µM"
molecule=C1CCC2(CC1)O[C@@H]1[C@@H](O2)[C@@H](O[C@H]2O[C@@H]3COC4(CCCCC4)O[C@H]3[C@@H]3OC4(CCCCC4)O[C@@H]23)O[C@@H]2COC3(CCCCC3)O[C@@H]12 target_entity="UO-31 renal" quantity=TGI readout_value="> 100 µM"

###

Test system: SK-MEL-5 melanoma
PROCEDURE TEXT: NCI tumour cell line growth inhibition, 48 h
Below is a list of entries, each paired with its recorded TGI value.
QUANTITY: TGI

compound="CCN(CC)CC1CCCCN1CC(=O)N1c2ccccc2NC(=O)CC1C (configuration not stated)" quantity=TGI readout_value="> 100 µM"
compound=CC(C)CCC(=O)c1ccoc1 quantity=TGI readout_value="> 100 µM"
compound=CC(=O)OCCOCn1c2c(c(=S)[nH]c1=O)CCC2 quantity=TGI readout_value="> 100 µM"
compound=Cc1cc(=O)oc2cc(OC(=O)N(C)C)c(Cl)cc12 quantity=TGI readout_value="> 100 µM"
compound=COc1ccc(-c2cc(=O)c3ccc(C)nc3[nH]2)cc1 quantity=TGI readout_value="> 100 µM"
compound=FC(F)(F)c1nc2nc(Cl)c(Cl)nc2n1CCCN1CCOCC1 quantity=TGI readout_value="> 100 µM"
compound=CCSc1sc(=Nc2ccc(N=c3sc(C)c(SC)s3)cc2)sc1-c1ccc(C)cc1 quantity=TGI readout_value="> 100 µM"
compound=COc1ccc(Nc2nc3ccc(C(F)(F)F)cc3nc2-c2ccccc2)cc1OC quantity=TGI readout_value="> 100 µM"
compound="Nc1nc(SCc2ccc([N+](=O)[O-])cc2)nc2c1ncn2C1OC(COP(=O)(O)O)C(O)C1O (configuration not stated)" quantity=TGI readout_value="> 100 µM"
compound=NC(N)=N/N=C/c1nc2n(c1[N+](=O)[O-])CCS2 quantity=TGI readout_value="34.4 µM"
compound=CC(=O)[CH-]C(C)=O.CC(=O)[CH-]C(C)=O.[CH2-]CCC.[CH2-]CCC.[Sn+4] quantity=TGI readout_value="2.15 µM"
compound=C[C@H](CCC(=O)NCCS(=O)(=O)O)[C@H]1CC[C@H]2[C@@H]3CC[C@@H]4C[C@H](O)CC[C@]4(C)[C@H]3CC[C@]12C quantity=TGI readout_value="> 100 µM"
compound="Cc1ccc(C)c2c1C(O)(C#Cc1ccccc1)c1ccccc1C2(O)C#Cc1ccccc1 (configuration not stated)" quantity=TGI readout_value="4.99 µM"
compound=O=S(=O)(c1ccccc1)n1c2ccc(Br)cc2c2nc3ccccc3nc21 quantity=TGI readout_value="> 100 µM"
compound="COc1cc(C2c3cc4c(cc3[C@@H](Nc3ccccc3)C3COC[C@H]23)OCO4)cc(OC)c1O (some centres not stated)" quantity=TGI readout_value="68.9 µM"
compound="Clc1ccc(SC(/C=C/NNC2=NC(c3ccccc3)C(c3ccccc3)=NN2)c2ccccc2)cc1 (configuration not stated)" quantity=TGI readout_value="31.2 µM"
compound=COc1ccc(/C=N/n2cnc3c(sc(=S)n3-c3ccccc3)c2=O)cc1 quantity=TGI readout_value="> 100 µM"
